Target: HLA-A*02:02
Test: IEDB peptide-MHC binding, purified MHC/competitive/radioactivity; filed as Kd, often an IC50 or EC50 that approximates it; bounds were set here for any values at or beyond the usual limits of such assays
Conditions: source organism: Vaccinia virus WR
pKd: −log10 of the molar value.
parameter_measured: pKd

HQRRLVKLL = 4.80
TLFGRGVIDT = 6.70
YVHSLLYSSM = 5.66
YLSKEDRIIT = 5.89
GIIITVGML = 5.06
KLLYAAEMV = 7.24
FVNFVKDMI = 7.26
PLHIVCSKT = 6.00
LISILMIFI = 5.63
CVDHPFIYVI = 6.02
VIVVPVIDRL = 5.34
DLNIFMTLV = 5.72
MAFDISVNA = 6.72
IIGHIGHHYI = 6.40
HLENDKIEDL = 6.28
KLLNMRDLIV = 6.71
FIASAPQQL = 8.71
IAGGVCYYLL = 5.34

* * *

Target: HLA-B*07:02
Test: IEDB peptide-MHC binding, purified MHC/direct/fluorescence; filed as Kd, often an IC50 or EC50 that approximates it; bounds were set here for any values at or beyond the usual limits of such assays
Details: source organism: Escherichia coli O6
parameter_measured: Kd (nM)

TPVWHVTSA = 18.1

* * *

Biological target: HLA-A*29:02
Assay: IEDB peptide-MHC binding, purified MHC/competitive/radioactivity; filed as Kd, often an IC50 or EC50 that approximates it; bounds were set here for any values at or beyond the usual limits of such assays
Details: source organism: Vaccinia virus WR
pKd: −log10 of the molar value.
parameter_measured: pKd

LVKESMASLK = ≤ 4.27

* * *

Target: HLA-A*01:01
Assay: IEDB peptide-MHC binding, purified MHC/direct/fluorescence; filed as Kd, often an IC50 or EC50 that approximates it; bounds were set here for any values at or beyond the usual limits of such assays
Conditions: source organism: Camelpox virus M-96
parameter_measured: Kd

EYYFRNEVF = ≥ 20 µM

* * *

Biological target: HLA-B*18:01
Test: IEDB peptide-MHC binding, purified MHC/competitive/radioactivity; filed as Kd, often an IC50 or EC50 that approximates it; bounds were set here for any values at or beyond the usual limits of such assays
Conditions: source organism: Hepatitis C virus (isolate 1)
parameter_measured: Kd

ATDALMTGY = ≥ 77.5 µM

* * *

Biological target: HLA-B*14:02
Assay: IEDB peptide-MHC binding, purified MHC/competitive/fluorescence; filed as Kd, often an IC50 or EC50 that approximates it; bounds were set here for any values at or beyond the usual limits of such assays
Details: source organism: Mycobacterium tuberculosis variant bovis BCG str. Pasteur 1173P2
pKd: −log10 of the molar value.
parameter_measured: pKd

RVACRDVEV = 5.52

* * *

Molecular target: HLA-B*27:03
Assay: IEDB peptide-MHC binding, purified MHC/competitive/fluorescence; filed as Kd, often an IC50 or EC50 that approximates it; bounds were set here for any values at or beyond the usual limits of such assays
Conditions: source organism: Rickettsia sibirica 246
parameter_measured: Kd

YLKKLDDFY = ≥ 20 µM

* * *

Listed next: entries and their corresponding Kd.
Molecular target: HLA-A*68:02
Experiment: IEDB peptide-MHC binding, purified MHC/competitive/radioactivity; filed as Kd, often an IC50 or EC50 that approximates it; bounds were set here for any values at or beyond the usual limits of such assays
Conditions: source organism: Dengue virus 2 Jamaica/1409/1983
parameter_measured: Kd (nM)

ETACLGKSYA = 7.48
MTGPLVAGGL = 21.6

* * *

Biological target: HLA-A*02:01
Assay: IEDB peptide-MHC binding, purified MHC/direct/fluorescence; filed as Kd, often an IC50 or EC50 that approximates it; bounds were set here for any values at or beyond the usual limits of such assays
Details: source organism: Pseudomonas putida
pKd: −log10 of the molar value.
parameter_measured: pKd

RVWRGEQGK = ≤ 4.70

* * *

Target: HLA-A*03:01
Test: IEDB peptide-MHC binding, purified MHC/competitive/fluorescence; filed as Kd, often an IC50 or EC50 that approximates it; bounds were set here for any values at or beyond the usual limits of such assays
Settings: source organism: Salmonella enterica subsp. enterica serovar Typhi
parameter_measured: Kd

ASIADILTY = ≥ 20 µM
LSEEANWAF = ≥ 20 µM

* * *

Biological target: HLA-A*69:01
Test: IEDB peptide-MHC binding, purified MHC/direct/fluorescence; filed as Kd, often an IC50 or EC50 that approximates it; bounds were set here for any values at or beyond the usual limits of such assays
Settings: source organism: Burkholderia pseudomallei
pKd: −log10 of the molar value.
parameter_measured: pKd

DAAVVFPPV = 9.40

* * *

Molecular target: HLA-B*15:42
Assay: IEDB peptide-MHC binding, purified MHC/competitive/fluorescence; filed as Kd, often an IC50 or EC50 that approximates it; bounds were set here for any values at or beyond the usual limits of such assays
Conditions: source organism: Mycobacterium tuberculosis variant bovis BCG str. Pasteur 1173P2
parameter_measured: Kd

TTFDLTLRR = ≥ 5 µM

* * *

Biological target: HLA-A*11:01
Assay: IEDB peptide-MHC binding, purified MHC/direct/fluorescence; filed as Kd, often an IC50 or EC50 that approximates it; bounds were set here for any values at or beyond the usual limits of such assays
Details: source organism: Dengue virus 1 Singapore/S275/1990
parameter_measured: Kd (nM)

KTFVELMRR = 16.2

* * *

Target: HLA-B*57:01
Assay: IEDB peptide-MHC binding, purified MHC/competitive/fluorescence; filed as Kd, often an IC50 or EC50 that approximates it; bounds were set here for any values at or beyond the usual limits of such assays
Details: source organism: Zaire ebolavirus
pKd: −log10 of the molar value.
parameter_measured: pKd

AFHQLVQVI = ≤ 4.70

* * *

Molecular target: HLA-A*02:12
Test: IEDB peptide-MHC binding, purified MHC/direct/fluorescence; filed as Kd, often an IC50 or EC50 that approximates it; bounds were set here for any values at or beyond the usual limits of such assays
Conditions: source organism: Ravn virus - Ravn, Kenya, 1987
parameter_measured: Kd

LLADGLAKA = 4 nM

* * *

Target: HLA-B*15:01
Test: IEDB peptide-MHC binding, purified MHC/direct/fluorescence; filed as Kd, often an IC50 or EC50 that approximates it; bounds were set here for any values at or beyond the usual limits of such assays
Conditions: source organism: Mycobacterium tuberculosis
parameter_measured: Kd

QQDTNSAGL = ≥ 20 µM

* * *

Molecular target: HLA-B*51:01
Assay: IEDB peptide-MHC binding, purified MHC/competitive/radioactivity; filed as Kd, often an IC50 or EC50 that approximates it; bounds were set here for any values at or beyond the usual limits of such assays
Settings: source organism: Dengue virus 2 Peru/IQT2913/1996
pKd: −log10 of the molar value.
parameter_measured: pKd

FLFLMSGRGI = 5.10

* * *

Listed next: entries and their corresponding pKd.
Target: HLA-B*07:02
Test: IEDB peptide-MHC binding, purified MHC/competitive/radioactivity; filed as Kd, often an IC50 or EC50 that approximates it; bounds were set here for any values at or beyond the usual limits of such assays
Settings: source organism: Dengue virus 1 Brazil/97-11/1997
pKd: −log10 of the molar value.
parameter_measured: pKd

MATFKMRPM = 6.80
RPVKEKEENL = 6.12

* * *

Biological target: HLA-A*11:01
Experiment: IEDB peptide-MHC binding, purified MHC/competitive/radioactivity; filed as Kd, often an IC50 or EC50 that approximates it; bounds were set here for any values at or beyond the usual limits of such assays
Details: source organism: Mammarenavirus guanaritoense
parameter_measured: Kd (µM)

RTAIHSLYGR = 0.142
NYTRFWYINH = 12.3

* * *

Target: HLA-A*26:01
Experiment: IEDB peptide-MHC binding, purified MHC/direct/fluorescence; filed as Kd, often an IC50 or EC50 that approximates it; bounds were set here for any values at or beyond the usual limits of such assays
Details: source organism: Itapua hantavirus
parameter_measured: Kd

GVPELGAFF = 207 nM

* * *

Target: HLA-B*53:01
Test: IEDB peptide-MHC binding, purified MHC/competitive/radioactivity; filed as Kd, often an IC50 or EC50 that approximates it; bounds were set here for any values at or beyond the usual limits of such assays
Conditions: source organism: Hepatitis C virus (isolate 1)
parameter_measured: Kd

ATDALMTGY = ≥ 78.2 µM

* * *

Target: HLA-A*68:02
Test: IEDB peptide-MHC binding, purified MHC/competitive/fluorescence; filed as Kd, often an IC50 or EC50 that approximates it; bounds were set here for any values at or beyond the usual limits of such assays
Details: source organism: Coxiella burnetii RSA 331
pKd: −log10 of the molar value.
parameter_measured: pKd

HEGDIVPLF = ≤ 4.70

* * *

Biological target: HLA-B*58:01
Experiment: IEDB peptide-MHC binding, purified MHC/competitive/radioactivity; filed as Kd, often an IC50 or EC50 that approximates it; bounds were set here for any values at or beyond the usual limits of such assays
Details: source organism: Dengue virus 4 Philippines/H241/1956
pKd: −log10 of the molar value.
parameter_measured: pKd

LSSRAKLALD = 6.44
YATQTVGPW = 7.77
ILIGFLVLW = 6.39
